- Tested on: c-Src
- assay_text: phosphorylation enrichment, bacterial display (enrichment ratio); higher = better substrate or ligand; peptides without Tyr show the background
# binarize phosphorylation enrichment: threshold 0.6 inclusive, high side y, low side n

{"entry_sequence": "MGRVKYGAFIN [GLB1_Y485_N484K_YF]", "class_label": "n"}
{"entry_sequence": "FSKQIYKGMVA [PCDH15_Y931_R929Q]", "class_label": "n"}
{"entry_sequence": "CGTPTYLAPEV [CHEK2_Y390]", "class_label": "y"}
{"entry_sequence": "PKGTGCIKTEL [STAT1_Y701_Y701C]", "class_label": "n"}
{"entry_sequence": "GGDGSYVSVPS [TNNI3K_Y425]", "class_label": "n"}
{"entry_sequence": "SWKRRYFLLWA [APBB1IP_Y331_R335W]", "class_label": "y"}
{"entry_sequence": "LDPDSYNKFEN [FOXC1_Y159_M161K]", "class_label": "y"}
{"entry_sequence": "RKPDIYGRLAS [MCM4_Y459_E460G]", "class_label": "y"}
{"entry_sequence": "RCYVYYYSYLL [PTEN_Y177_R173C]", "class_label": "y"}
{"entry_sequence": "YQNGMYGLHQD [SGSH_Y89_H84Y]", "class_label": "y"}
{"entry_sequence": "QGIPRYHSQSP [FOXF1_Y331]", "class_label": "y"}
{"entry_sequence": "NTGVFYDLFGG [PTPN11_Y63_D61V_YF]", "class_label": "y"}
{"entry_sequence": "TSNQEYLDVSM [FGFR1_Y766_L769V]", "class_label": "n"}
{"entry_sequence": "FFHCTYKKRMI [CLEC12A_Y242_YF]", "class_label": "n"}
{"entry_sequence": "ISDDKYGRIRL [ARCN1_Y310]", "class_label": "n"}
{"entry_sequence": "INSLKYAFNVS [EIF2B5_Y583_I587V_YF]", "class_label": "n"}
{"entry_sequence": "HEKKVYSFCGT [RPS6KA3_Y226_A225V]", "class_label": "y"}
{"entry_sequence": "KPGVNYFFQVS", "class_label": "n"}
{"entry_sequence": "NVDGKYSYLKV [GRM3_Y478_G475D]", "class_label": "n"}
{"entry_sequence": "QYNMQYSSSAA [ERBB2IP_Y981_I979M]", "class_label": "y"}
{"entry_sequence": "EQKKFSNAMKK [SCN5A_Y1495_Y1495S_YF]", "class_label": "n"}
{"entry_sequence": "QHVPDYRQNVF [PCDHGA1_Y890_YF]", "class_label": "n"}
{"entry_sequence": "KKFPDYIQIAR [SGMS2_Y59_M64R_YF]", "class_label": "n"}

====

- test_system: FGFR3 (UniProt P22607)
- Sequence (P22607 whole entry, looked up): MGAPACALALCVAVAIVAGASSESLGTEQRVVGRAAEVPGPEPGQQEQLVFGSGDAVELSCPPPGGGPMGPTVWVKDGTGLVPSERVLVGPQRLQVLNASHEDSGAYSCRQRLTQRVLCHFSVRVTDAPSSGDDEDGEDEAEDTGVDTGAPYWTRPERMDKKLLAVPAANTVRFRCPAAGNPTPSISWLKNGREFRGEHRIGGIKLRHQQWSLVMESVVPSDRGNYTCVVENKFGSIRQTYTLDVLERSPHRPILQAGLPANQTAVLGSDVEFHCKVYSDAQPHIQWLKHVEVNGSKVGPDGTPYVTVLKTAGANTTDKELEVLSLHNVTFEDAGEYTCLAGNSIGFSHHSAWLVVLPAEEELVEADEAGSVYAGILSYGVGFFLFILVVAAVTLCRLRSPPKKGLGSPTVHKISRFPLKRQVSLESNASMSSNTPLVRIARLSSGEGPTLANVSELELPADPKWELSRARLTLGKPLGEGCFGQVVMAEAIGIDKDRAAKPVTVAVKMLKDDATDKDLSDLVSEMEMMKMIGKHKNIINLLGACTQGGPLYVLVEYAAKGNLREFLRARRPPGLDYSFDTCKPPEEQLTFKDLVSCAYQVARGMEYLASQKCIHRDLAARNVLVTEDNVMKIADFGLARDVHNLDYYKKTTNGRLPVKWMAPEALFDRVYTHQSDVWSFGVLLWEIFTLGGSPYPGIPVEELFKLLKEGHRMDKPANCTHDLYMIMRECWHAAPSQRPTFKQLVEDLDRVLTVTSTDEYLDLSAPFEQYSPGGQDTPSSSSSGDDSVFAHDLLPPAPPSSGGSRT
- assay_text: phosphorylation enrichment, bacterial display (enrichment ratio); higher = better substrate or ligand; peptides without Tyr show the background
Each entry below carries its recorded phosphorylation enrichment.

{"entry_sequence": "LPKVSYMKAID [GLRA1_Y307_V308M]", "phosphorylation enrichment": 0.77}
{"entry_sequence": "LHVGFYESDVM [A2M_Y708_R704H]", "phosphorylation enrichment": 1.21}
{"entry_sequence": "SRDDFYETIAM [NPY1R_Y347_D346Y_YF]", "phosphorylation enrichment": 0.871}
{"entry_sequence": "SLIDMYSEVPD [OPA1_Y268_L272P]", "phosphorylation enrichment": 0.895}
{"entry_sequence": "EEGENYQKGEQ [CHGB_Y173_R178Q]", "phosphorylation enrichment": 0.747}
{"entry_sequence": "TYEPNYGTVKQ [RAPGEF6_Y1447]", "phosphorylation enrichment": 0.659}
{"entry_sequence": "WKKEIYEESST [MOCS2_Y170]", "phosphorylation enrichment": 0.661}
{"entry_sequence": "SLLVVYPWTQR [HBB_Y36_R31S]", "phosphorylation enrichment": 0.513}
{"entry_sequence": "GACGGYCSVLG [RAB18_Y202]", "phosphorylation enrichment": 0.401}
{"entry_sequence": "DKMEAYNINET [TEKT4_Y210_D213N]", "phosphorylation enrichment": 0.663}
{"entry_sequence": "PFDAEYGGGGG [AKR1B10_Y316_N313D]", "phosphorylation enrichment": 1.09}
{"entry_sequence": "FEEDPYLVVNP [MCM6_Y810_YF]", "phosphorylation enrichment": 1.62}
{"entry_sequence": "YFVVEYRNQKP [MUC17_Y4332_D4334N]", "phosphorylation enrichment": 9.02}
{"entry_sequence": "MFRAGYDTKQE [F10_Y407_C404R]", "phosphorylation enrichment": 0.448}
{"entry_sequence": "NRLTDYFEPLL [BBS10_Y536_YF]", "phosphorylation enrichment": 4.38}
{"entry_sequence": "CTTIHYNYRCN [TP53_Y234_M237R]", "phosphorylation enrichment": 0.713}
{"entry_sequence": "QRRLIYRCQVG [NR2E3_Y81_R76Q]", "phosphorylation enrichment": 0.845}
{"entry_sequence": "LFRFGYANTSE [SI_Y1233_C1229Y_YF]", "phosphorylation enrichment": 0.497}
{"entry_sequence": "CGTPTYLAPEV [CHEK2_Y390]", "phosphorylation enrichment": 1.04}
{"entry_sequence": "GEDLSYGDVPP [IRS1_Y151]", "phosphorylation enrichment": 0.84}
{"entry_sequence": "REAAAYLHGRL [AGXT_Y297]", "phosphorylation enrichment": 0.595}
{"entry_sequence": "PNRILYRDFRQ [MYH7_Y715_G716R]", "phosphorylation enrichment": 0.573}
{"entry_sequence": "LHRAHYDLHHT [AHSG_Y314_R317H]", "phosphorylation enrichment": 0.857}
{"entry_sequence": "EVVGRYSVHYA [MLH1_Y183_N187Y]", "phosphorylation enrichment": 0.588}
{"entry_sequence": "ATGGFYSFGGG [KRT24_Y120_YF]", "phosphorylation enrichment": 0.502}
{"entry_sequence": "RGYRQYAYDGK [HLA-A_Y140_D140Y]", "phosphorylation enrichment": 0.39}
{"entry_sequence": "VTVLDYDKTGK [SYT1_Y365_I368T]", "phosphorylation enrichment": 0.439}
{"entry_sequence": "KIDAKYKKKIE [WDR19_Y1230]", "phosphorylation enrichment": 0.368}
{"entry_sequence": "ARRMEYLASQK [FGFR2_Y616_G613R]", "phosphorylation enrichment": 0.437}
{"entry_sequence": "LTSKPYAFTAQ [NDUFS1_Y236_R241Q]", "phosphorylation enrichment": 0.371}
{"entry_sequence": "LENSTYQYICV [CRB1_Y760_R764C]", "phosphorylation enrichment": 8.35}
{"entry_sequence": "QGIPRYHSQSP [FOXF1_Y331]", "phosphorylation enrichment": 0.677}
{"entry_sequence": "LVMFFYAIFGM [SCN1A_Y1684_I1683F]", "phosphorylation enrichment": 1.34}
{"entry_sequence": "LADKPYTFEFF [FXN_Y118_D122Y_YF]", "phosphorylation enrichment": 0.952}

====

- Test system: c-Src
- assay_text: phosphorylation enrichment, bacterial display (enrichment ratio); higher = better substrate or ligand; peptides without Tyr show the background
Each entry below carries its recorded phosphorylation enrichment.

{"entry_sequence": "AAETTYDKILK [GDNF_Y156]", "phosphorylation enrichment": 0.501}
{"entry_sequence": "IPQEEYTATGL", "phosphorylation enrichment": 0.56}
{"entry_sequence": "YYSSEYHCVGG [CTSC_Y345_Y347C]", "phosphorylation enrichment": 3.66}
{"entry_sequence": "NIWDSYTTNKV [GNB1_Y85_I80N]", "phosphorylation enrichment": 0.437}
{"entry_sequence": "SENPKYPEVGD [TMEM43_Y233]", "phosphorylation enrichment": 0.584}
{"entry_sequence": "MRAIIYNSSTA [PLEKHA7_Y243_L241I]", "phosphorylation enrichment": 0.447}

====

- test_system: c-Src SH2;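 further: peptide library displayed on the E. coli surface as eCPX fusions, selected cells deep-sequenced, score is each peptide's frequency after selection divided by its frequency in the input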
- assay_text: SH2 binding enrichment of the phosphorylated peptide, bacterial display (enrichment ratio); higher = better substrate or ligand; peptides without Tyr show the background

{"entry_sequence": "MDNQEYKDAYK [BRDT_Y331]", "SH2 binding enrichment": 0.499}
{"entry_sequence": "NFGTNYRVGSS [CPO_Y278_K273N_YF]", "SH2 binding enrichment": 0.418}
{"entry_sequence": "ADRNHYRRYRR [YBX1_Y145_P149R]", "SH2 binding enrichment": 0.538}
{"entry_sequence": "EQKKYYNAVKK [SCN5A_Y1495_M1498V]", "SH2 binding enrichment": 0.696}
{"entry_sequence": "QKPLDYFRVNL [GALE_Y104_YF]", "SH2 binding enrichment": 0.747}
{"entry_sequence": "ADYYDYGHGLS [KHDRBS3_Y304]", "SH2 binding enrichment": 0.601}
{"entry_sequence": "RTLIRYANLGN [BEST1_Y131]", "SH2 binding enrichment": 0.802}
{"entry_sequence": "KDHPDYKYQRR [SOX10_Y171_P175R]", "SH2 binding enrichment": 0.829}
{"entry_sequence": "KFGTNYRVGSS [CPO_Y278_YF]", "SH2 binding enrichment": 0.586}
{"entry_sequence": "SNKLFYQLEQE [PDPR_Y110_YF]", "SH2 binding enrichment": 0.651}
{"entry_sequence": "SWSTSYSGFRC [NKAPL_Y91_Y96C_YF]", "SH2 binding enrichment": 0.43}
{"entry_sequence": "YIIFIYAMKKK [SLCO1B1_Y645_L643F]", "SH2 binding enrichment": 1.23}
{"entry_sequence": "INNIDYYKNTT [FGFR2_Y656_K659N]", "SH2 binding enrichment": 0.662}
{"entry_sequence": "KINKMYSDRAM", "SH2 binding enrichment": 0.418}
{"entry_sequence": "EYGRRYGFSRQ [CCDC93_Y209]", "SH2 binding enrichment": 0.474}
{"entry_sequence": "SHISGYAALRR [RAPH1_Y1226_T1228A]", "SH2 binding enrichment": 0.318}
{"entry_sequence": "FKTPTYPFLLP [PLD2_Y578_YF]", "SH2 binding enrichment": 0.657}
{"entry_sequence": "GIKAAYEAELG [LMNA_Y81]", "SH2 binding enrichment": 0.514}
{"entry_sequence": "EQKKFYNAMKN [SCN5A_Y1495_K1500N_YF]", "SH2 binding enrichment": 0.381}
{"entry_sequence": "RDLEQYVNNVN [PCDH19_Y1097]", "SH2 binding enrichment": 0.59}
{"entry_sequence": "GDYLSYREFHL [ERBIN_Y1107_S1112L]", "SH2 binding enrichment": 0.491}
{"entry_sequence": "DMQTLYVNTAA [SMCHD1_Y403]", "SH2 binding enrichment": 0.635}
{"entry_sequence": "PDMHSYVVRYN [GRIN2D_Y732_M733V]", "SH2 binding enrichment": 0.544}
{"entry_sequence": "DGMADCSDPSY [CDC5L_Y459_Y459C]", "SH2 binding enrichment": 0.615}
{"entry_sequence": "AAVNGYVFGGG [ECHS1_Y137_A138V]", "SH2 binding enrichment": 0.489}
{"entry_sequence": "ESDGAYIQRMQ [CCDC137_Y125_H127Q]", "SH2 binding enrichment": 0.468}
{"entry_sequence": "RVEDACILTCN [CCT6A_Y229_Y229C]", "SH2 binding enrichment": 0.657}
{"entry_sequence": "FFVVEYRDQKP [MUC17_Y4332_YF]", "SH2 binding enrichment": 0.861}
{"entry_sequence": "VNFGAYINFFK [GLB1_Y488_D491Y_YF]", "SH2 binding enrichment": 0.611}
{"entry_sequence": "HSVLQYVGGVM [FGGY_Y136]", "SH2 binding enrichment": 0.493}
{"entry_sequence": "SLMGCYNLTFM [HS6ST3_Y323_V320M]", "SH2 binding enrichment": 0.459}
{"entry_sequence": "VPVDGYISGLL [PAK6_Y81_M76V]", "SH2 binding enrichment": 0.573}
{"entry_sequence": "MHFSNYVSKGS [PDGFRA_Y849_D846Y_YF]", "SH2 binding enrichment": 0.551}
{"entry_sequence": "DTSKMYIPHTD [EXPH5_Y782]", "SH2 binding enrichment": 0.417}
{"entry_sequence": "AAVDNYCRHNY [HLA-DRB1_Y107_T106N]", "SH2 binding enrichment": 0.631}
{"entry_sequence": "HDHFGYRQSVT [CD55_Y245_R240H_YF]", "SH2 binding enrichment": 0.628}
{"entry_sequence": "AGVIIYTSRFQ [PFAS_Y538_A535V]", "SH2 binding enrichment": 0.49}
